System: P388 leukemia ip, CD2F1 mice, survival T/C
Assay name: NCI In Vivo Anticancer Drug Screen. Data for tumor model P388 Leukemia (intraperitoneal) in CD2F1 (CDF1) mice
Experimental conditions: endpoint: median survival time; dose: 400.0 mg/kg/injection; schedule: Q01DX009 (ip); vehicle: saline with Tween-80; higher = longer survival
Toxic doses and inconclusive results are not listed.
Measure name: T/C

// below: answered compounds
{"Compound": "CN1C(=O)C(=Cc2ccc(O)cc2)C(=O)N(C)C1=O", "T/C": "86 % of control"}
{"Compound": "O=c1[nH]cc(C(O)Cc2ccccc2)c(=O)[nH]1 (configuration not stated)", "T/C": "100 % of control"}
{"Compound": "O=C(O)c1cc(-c2ccc(-c3ccc(-c4cc(C(=O)O)c5cc(Cl)ccc5n4)cc3)cc2)nc2ccc(Cl)cc12", "T/C": "109 % of control"}
{"Compound": "COc1ccc(OCC(O)CN2CCN(c3ccc(Cl)cc3)CC2)cc1 (configuration not stated)", "T/C": "92 % of control"}

Query: Looking for the measured T/C of ClC(Cl)(Cl)C(N1CCN(c2ccccc2)CC1)N1CCN(c2ccccc2)CC1 , can you help?
Reply: 106 % of control

Query: Moving on to the next compound: COc1ccc(Br)cc1/C=N\NS(=O)(=O)c1ccc(C)cc1
Reply: 122 % of control

Query: Moving on to the next compound: CC(C)C(Sc1nc(N)nc2nc[nH]c12)C(=O)O (configuration not stated)
Reply: 104 % of control

Query: Moving on to the next compound: O=C1c2ccccc2C(=O)c2c(NCCN3CCOCC3)ccc(NCCN3CCOCC3)c21
Reply: 117 % of control

Query: Moving on to the next compound: CC1(C)C=C(Cc2ccccc2)C(=O)c2ccccc21
Reply: 95 % of control

* * *

Below, each entry is listed alongside its reported T/C.
Tested on: P388 leukemia ip, CD2F1 mice, survival T/C
Assay name: NCI In Vivo Anticancer Drug Screen. Data for tumor model P388 Leukemia (intraperitoneal) in CD2F1 (CDF1) mice
Experimental conditions: endpoint: median survival time; dose: 50.0 mg/kg/injection; schedule: Q01DX009 (ip); vehicle: other; higher = longer survival
Inconclusive results and toxic doses are left out.

// below: answered compounds
{"Compound": "CC1=CC(=Nc2ccc(N(CCCl)CCCl)cc2)C=C(C)C1=O", "Measure name": "T/C", "Reported result": "91 % of control"}
{"Compound": "Nc1cc2c(cc1C(=O)N1CCc3ccccc31)OCO2", "Measure name": "T/C", "Reported result": "100 % of control"}
{"Compound": "CCOC(=O)Nc1cc(OC)cc2ccc(C)nc12", "Measure name": "T/C", "Reported result": "98 % of control"}
{"Compound": "CC1(C)C(C(N)=O)C(=O)NC(=O)C1C(N)=O (stereo not given)", "Measure name": "T/C", "Reported result": "100 % of control"}

Please turn your attention to the following entry.
Query: Looking for the measured T/C of CC(C)CCCCCCCCCCCCC(=O)NC1C(C)OC(Nc2ncnc3nc[nH]c23)C(O)C1O (stereo not given) , can you help?
Reply: 91 % of control

* * *

Below, each entry is listed alongside its reported T/C.
System: P388 leukemia ip, CD2F1 mice, survival T/C
Assay name: NCI In Vivo Anticancer Drug Screen. Data for tumor model P388 Leukemia (intraperitoneal) in CD2F1 (CDF1) mice
Experimental conditions: endpoint: median survival time; dose: 100.0 mg/kg/injection; schedule: Q01DX001 (ip); vehicle: Klucel (hydroxypropylcellulose) (HPC); higher = longer survival
Toxic doses and inconclusive results are not listed.

Query: Looking for the measured T/C of N=c1sccn1CC(O)c1ccccc1 (stereo not drawn) , can you help?
Reply: 100 % of control

Query: Moving on to the next compound: CCOc1ccc(N=Nc2c(O)n(-c3ccccc3Cl)c(=S)n(-c3ccc(OC)cc3)c2=O)cc1
Reply: 102 % of control

Query: Moving on to the next compound: Cc1ccc(N=Nc2c(O)n(-c3ccccc3C)c(=S)n(-c3ccccc3Cl)c2=O)cc1
Reply: 101 % of control

Query: Moving on to the next compound: CN(Cc1nc2ccccc2[nH]1)N=O
Reply: 97 % of control

Query: Moving on to the next compound: CN(C)/N=C(\N)c1nnn(C)n1
Reply: 101 % of control

Query: Moving on to the next compound: OCC1CCCCC1(O)c1ccccc1 (stereo not drawn)
Reply: 90 % of control

Query: Moving on to the next compound: CCOC(=O)C(Cc1ccc(Oc2nc3ccccc3o2)cc1)NC(C)=O (stereo not drawn)
Reply: 109 % of control

Query: Moving on to the next compound: N=C(N)c1ccc2oc(/C=C/c3nc4ccc(C(=N)N)cc4[nH]3)cc2c1
Reply: 98 % of control

Query: Moving on to the next compound: CC(=O)Nc1cccc2c(C)cc(=O)[nH]c12
Reply: 91 % of control

Query: Moving on to the next compound: Cc1ccccc1N=Nc1c(O)n(-c2ccccc2Cl)c(=S)n(-c2ccccc2)c1=O
Reply: 101 % of control

* * *

Test system: P388 leukemia ip, CD2F1 mice, survival T/C
Assay name: NCI In Vivo Anticancer Drug Screen. Data for tumor model P388 Leukemia (intraperitoneal) in CD2F1 (CDF1) mice
Experimental conditions: endpoint: median survival time; dose: 100.0 mg/kg/injection; schedule: Q01DX005 (ip); vehicle: Klucel (hydroxypropylcellulose) (HPC); higher = longer survival
Toxic doses and inconclusive results are not listed.
Below, each entry is listed alongside its reported T/C.

{"Compound": "Cc1nc(Nc2ccc(F)cc2)c2c(-c3ccccc3)c[nH]c2n1", "Assay target": "P388 leukemia ip, CD2F1 mice, survival T/C", "Reported result": "88 % of control"}
{"Compound": "Cc1cc(C)c(C#N)c(SC(C(=O)Nc2cc(C(F)(F)F)ccc2Cl)c2ccccc2)n1 (stereo not drawn)", "Assay target": "P388 leukemia ip, CD2F1 mice, survival T/C", "Reported result": "105 % of control"}

Please turn your attention to the following entry.
Query: Looking for the measured T/C of CSCCC(NC(=O)OCC1c2ccccc2-c2ccccc21)C(=O)O (stereo not drawn) , can you help?
Reply: 100 % of control

* * *

Tested on: P388 leukemia ip, CD2F1 mice, survival T/C
Assay name: NCI In Vivo Anticancer Drug Screen. Data for tumor model P388 Leukemia (intraperitoneal) in CD2F1 (CDF1) mice
Experimental conditions: endpoint: median survival time; dose: 200.0 mg/kg/injection; schedule: Q04DX003 (ip); vehicle: saline with Tween-80; higher = longer survival
Toxic doses and inconclusive results are not listed.
Measure name: T/C

// below: answered molecules
{"Molecule": "COc1ccc2c(c1)CC(=CO)CC2=O.COc1ccc2c(c1)CC/C(=C/O)C2=O.[Cu]", "Reported result": "91 % of control"}
{"Molecule": "C(=C1c2ccccc2-c2ccccc21)c1ccccc1", "Reported result": "100 % of control"}
{"Molecule": "CN/N=C/c1ccc(O)c(OC)c1", "Reported result": "100 % of control"}

Query: Looking for the measured T/C of CSc1nc(N)c(I)c(Cl)n1 , can you help?
Reply: 93 % of control

Query: Moving on to the next molecule: COc1cccc(/C=N\NC(=O)C(C)SC(C)C(=O)N/N=C/c2cccc(OC)c2)c1 (configuration not stated)
Reply: 90 % of control

Query: Moving on to the next molecule: Nc1nc(N)c(N=Nc2ccccc2)c(=O)[nH]1
Reply: 95 % of control

* * *

System: P388 leukemia ip, CD2F1 mice, survival T/C
Assay name: NCI In Vivo Anticancer Drug Screen. Data for tumor model P388 Leukemia (intraperitoneal) in CD2F1 (CDF1) mice
Experimental conditions: endpoint: median survival time; dose: 400.0 mg/kg/injection; schedule: Q01DX001 (ip); vehicle: Klucel (hydroxypropylcellulose) (HPC); higher = longer survival
Method: The antitumor activity of compounds was measured in mice bearing transplantable tumors. Survival or tumor size were measured and the results are expressed as the measurement made in the treated group (T) divided by the measurement made in the vehicle treated control group (C). The tumor model used in this assay is P388 Leukemia (intraperitoneal) in CD2F1 (CDF1) mice
Inconclusive results and toxic doses are left out.
Below, each entry is listed alongside its reported T/C.

Query: Looking for the measured T/C of Cc1cc2cc(CN3C(=O)c4ccccc4C3=O)ccc2[nH]1 , can you help?
Reply: 93 % of control

Query: Moving on to the next molecule: COc1ccc(/C=C\C(C)=N\NC(=S)Nc2ccc(Cl)cc2)cc1
Reply: 103 % of control

* * *

Tested on: P388 leukemia ip, CD2F1 mice, survival T/C
Assay name: NCI In Vivo Anticancer Drug Screen. Data for tumor model P388 Leukemia (intraperitoneal) in CD2F1 (CDF1) mice
Experimental conditions: endpoint: median survival time; dose: 6.25 mg/kg/injection; schedule: Q01DX009 (ip); vehicle: saline
Procedure: The antitumor activity of compounds was measured in mice bearing transplantable tumors. Survival or tumor size were measured and the results are expressed as the measurement made in the treated group (T) divided by the measurement made in the vehicle treated control group (C). The tumor model used in this assay is P388 Leukemia (intraperitoneal) in CD2F1 (CDF1) mice
Toxic doses and inconclusive results are not listed. The calls were made as follows: active = survival T/C of 150% or more; inactive = T/C below 125% in these data.
The reply should name one outcome from active, inactive

{"Compound": "Nc1nc([Se])c2ncn(C3OC(CO)C(O)C3O)c2n1 (stereo not given)", "Answer label": "active"}

Query: Write down the call the test reported for this compound. Item: C=C1C(=O)O[C@H]2[C@H]1[C@H](OC(=O)/C(C)=C\C)CC(=C)[C@@H]1[C@H](O)[C@H]3O[C@@]3(C)[C@@]12O
Reply: inactive

Query: Moving on to the next compound: COc1cc(C(=O)O)c2c(c1C)OC(=O)c1c(C)cc(O)c(C=O)c1O2
Reply: inactive

Query: Moving on to the next compound: C1=Nc2ccccc2N=Cc2ccccc2NCCNc2ccccc21
Reply: inactive

Query: Moving on to the next compound: CN(C)CCCNC1=C(Cl)C(=O)C(NCCCN(C)C)=C(Cl)C1=O
Reply: inactive
